Experiment: Hydrodynamic radius and size distribution of micelles by dynamic light scattering (DLS)
Format: physicochemical
Details: 1.0 wt % stated for M-/O-XMAs (FIG. 37)
Experimental: A method for measuring the radius of a micelle is not particularly limited, but a method well known in the art may be used, and for example, the measurement may be performed using a dynamic light scattering (DLS) experiment. Specifically, the critical micellar concentration (CMC) was measured using fluorescence staining and diphenylhexatriene (DPH), and the hydrodynamic radii (Rh) of the micelles formed by agents were measured through a dynamic light scattering (DLS) experiment. […]
measured.metric: Rh (nm), hydrodynamic radius of micelles
Field: numeric (nm). Do not append units.

Examples from the recorded data:
{"compound": "CCCCCCCCCCCCC(CO[C@@H]1OC(CO)[C@@H](O[C@H]2OC(CO)[C@@H](O)C(O)C2O)C(O)C1O)(CO[C@@H]1OC(CO)[C@@H](O[C@H]2OC(CO)[C@@H](O)C(O)C2O)C(O)C1O)Cc1cccc(C[C@](CCCCCCCCCCCC)(CO[C@@H]2OC(CO)[C@@H](O[C@H]3OC(CO)[C@@H](O)C(O)C3O)C(O)C2O)CO[C@@H]2OC(CO)[C@@H](O[C@@H]3OC(CO)[C@@H](O)C(O)C3O)C(O)C2O)c1 (stereo partly shown)", "Rh (nm), hydrodynamic radius of micelles": 3.4}
{"compound": "CCCCCCCCCC(CO[C@@H]1OC(CO)[C@@H](O[C@H]2OC(CO)[C@@H](O)C(O)C2O)C(O)C1O)(CO[C@@H]1OC(CO)[C@@H](O[C@H]2OC(CO)[C@@H](O)C(O)C2O)C(O)C1O)Cc1ccc(CC(CCCCCCCCC)(CO[C@@H]2OC(CO)[C@@H](O[C@H]3OC(CO)[C@@H](O)C(O)C3O)C(O)C2O)CO[C@@H]2OC(CO)[C@@H](O[C@H]3OC(CO)[C@@H](O)C(O)C3O)C(O)C2O)cc1 (stereo partly shown)", "Rh (nm), hydrodynamic radius of micelles": 3.2}
{"compound": "CCCCCCCCCCCC(CO[C@@H]1OC(CO)[C@@H](O[C@H]2OC(CO)[C@@H](O)C(O)C2O)C(O)C1O)(CO[C@@H]1OC(CO)[C@@H](O[C@H]2OC(CO)[C@@H](O)C(O)C2O)C(O)C1O)Cc1ccc(CC(CCCCCCCCCCC)(CO[C@@H]2OC(CO)[C@@H](O[C@H]3OC(CO)[C@@H](O)C(O)C3O)C(O)C2O)CO[C@@H]2OC(CO)[C@@H](O[C@H]3OC(CO)[C@@H](O)C(O)C3O)C(O)C2O)cc1 (stereo partly shown)", "Rh (nm), hydrodynamic radius of micelles": 3.3}

Continue with the compound presented below.
*Q* Bench note: what Rh (nm), hydrodynamic radius of micelles did CCCCCCCCCCC(CO[C@@H]1OC(CO)[C@@H](O[C@H]2OC(CO)[C@@H](O)C(O)C2O)C(O)C1O)(CO[C@@H]1OC(CO)[C@@H](O[C@H]2OC(CO)[C@@H](O)C(O)C2O)C(O)C1O)Cc1ccc(CC(CCCCCCCCCC)(CO[C@@H]2OC(CO)[C@@H](O[C@H]3OC(CO)[C@@H](O)C(O)C3O)C(O)C2O)CO[C@@H]2OC(CO)[C@@H](O[C@H]3OC(CO)[C@@H](O)C(O)C3O)C(O)C2O)cc1 (stereo partly shown) show?
*A* 3.5

###

# Rh (nm), hydrodynamic radius of micelles per entry
experiment: Hydrodynamic radius and size distribution of micelles by dynamic light scattering (DLS); format: physicochemical; settings: 1.0 wt % stated for M-/O-XMAs (FIG. 37)
Param answer (str): number followed by unit.

Examples from the recorded data:
{"molecule": "CCCCCCCCCCCCCCCCCCC(CO[C@@H]1OC(CO)[C@@H](O[C@@H]2OC(CO)[C@@H](O)C(O)C2O)C(O)C1O)(CO[C@@H]1OC(CO)[C@@H](O[C@@H]2OC(CO)[C@@H](O)C(O)C2O)C(O)C1O)Cc1ccccc1CC(CCCCCCCCCCCCCCCCCC)(CO[C@@H]1OC(CO)[C@@H](O[C@@H]2OC(CO)[C@@H](O)C(O)C2O)C(O)C1O)CO[C@@H]1OC(CO)[C@@H](O[C@@H]2OC(CO)[C@@H](O)C(O)C2O)C(O)C1O (stereo partly drawn) [O-XMA-C18]", "Rh (nm), hydrodynamic radius of micelles": "3.9 ± 0.04 nm"}
{"molecule": "CCCCCCCCCCCC(CO[C@@H]1OC(CO)[C@@H](O[C@H]2OC(CO)[C@@H](O)C(O)C2O)C(O)C1O)(CO[C@@H]1OC(CO)[C@@H](O[C@H]2OC(CO)[C@@H](O)C(O)C2O)C(O)C1O)Cc1cccc(C[C@](CCCCCCCCCCC)(CO[C@@H]2OC(CO)[C@@H](O[C@H]3OC(CO)[C@@H](O)C(O)C3O)C(O)C2O)CO[C@@H]2OC(CO)[C@@H](O[C@@H]3OC(CO)[C@@H](O)C(O)C3O)C(O)C2O)c1 (stereo partly drawn) [M-XMA-C11]", "Rh (nm), hydrodynamic radius of micelles": "3.2 ± 0.01 nm"}

*Q* Bench note: what Rh (nm), hydrodynamic radius of micelles did CCCCCCCCCCCCCCCC[C@@](CO[C@@H]1OC(CO)[C@@H](O[C@H]2OC(CO)[C@@H](O)C(O)C2O)C(O)C1O)(CO[C@@H]1OC(CO)[C@@H](O[C@@H]2OC(CO)[C@@H](O)C(O)C2O)C(O)C1O)Cc1cccc(C[C@](CCCCCCCCCCCCCCCC)(CO[C@@H]2OC(CO)[C@@H](O[C@H]3OC(CO)[C@@H](O)C(O)C3O)C(O)C2O)CO[C@@H]2CC(CO)[C@@H](O[C@H]3OC(CO)[C@@H](O)C(O)C3O)C(O)C2O)c1 (stereo partly drawn) [M-XMA-C16] show?
*A* 3.9 ± 0.04 nm
